Biological target: human natriuretic peptide receptor A (NPR-A) (human) (UniProt P16066)
Sequence (P16066 33-1061): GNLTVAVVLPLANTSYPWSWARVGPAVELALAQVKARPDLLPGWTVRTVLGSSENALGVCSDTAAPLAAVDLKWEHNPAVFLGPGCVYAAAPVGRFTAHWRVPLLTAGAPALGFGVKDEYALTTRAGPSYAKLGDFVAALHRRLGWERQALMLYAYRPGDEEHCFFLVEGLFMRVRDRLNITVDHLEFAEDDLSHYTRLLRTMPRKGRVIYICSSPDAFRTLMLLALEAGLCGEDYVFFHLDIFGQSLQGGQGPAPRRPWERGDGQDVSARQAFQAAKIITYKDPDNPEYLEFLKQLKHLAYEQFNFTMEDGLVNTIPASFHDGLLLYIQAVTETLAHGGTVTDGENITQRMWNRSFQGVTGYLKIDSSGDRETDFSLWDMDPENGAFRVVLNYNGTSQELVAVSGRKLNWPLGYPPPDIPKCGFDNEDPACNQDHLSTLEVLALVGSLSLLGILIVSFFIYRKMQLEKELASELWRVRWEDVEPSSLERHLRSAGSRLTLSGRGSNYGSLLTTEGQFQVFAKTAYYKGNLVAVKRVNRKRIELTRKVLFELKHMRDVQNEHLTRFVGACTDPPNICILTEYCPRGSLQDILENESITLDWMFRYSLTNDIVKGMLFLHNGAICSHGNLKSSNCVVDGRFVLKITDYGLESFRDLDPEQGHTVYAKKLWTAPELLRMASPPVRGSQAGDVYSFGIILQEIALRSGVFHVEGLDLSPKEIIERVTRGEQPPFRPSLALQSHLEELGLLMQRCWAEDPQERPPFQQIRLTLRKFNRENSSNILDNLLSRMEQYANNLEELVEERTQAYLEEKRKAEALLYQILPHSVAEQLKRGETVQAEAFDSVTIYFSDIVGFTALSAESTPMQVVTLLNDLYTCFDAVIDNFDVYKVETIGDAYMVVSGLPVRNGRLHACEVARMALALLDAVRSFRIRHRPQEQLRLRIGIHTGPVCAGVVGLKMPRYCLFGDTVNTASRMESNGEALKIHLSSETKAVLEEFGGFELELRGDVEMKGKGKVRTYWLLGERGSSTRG
Experiment: cell-based or functional assay
Ends that are not written are not given here.
For each of the binders below, state its EC50 ratio versus CDNP on NPR-A, membrane cGMP assay.
Form field (numeric): enter value without unit.

What value of EC50 ratio versus CDNP on NPR-A, membrane cGMP assay has been recorded for this entry: GLSKGCFGLKLDRIGSMSGLGCPSLRAPRPNAPSTSA (ends and bridges not checked; cysteine pairing not given here) [CDNP-A5]
1.33

What value of EC50 ratio versus CDNP on NPR-A, membrane cGMP assay has been recorded for this entry: GLSKGCFGLKLDRIGSMSGLGCPSSRAPRPNAPSTSA (ends and bridges not checked; cysteine pairing not given here) [CDNP-S3A5]
1.33

What value of EC50 ratio versus CDNP on NPR-A, membrane cGMP assay has been recorded for this entry: GLSKGCFGLKLDRIGSMSGLGCPSLAAPRPNAPSTSA (ends and bridges not checked; cysteine pairing not given here) [CDNP-A4A5]
0.48

What value of EC50 ratio versus CDNP on NPR-A, membrane cGMP assay has been recorded for this entry: GLSKGCFGLKLDRIGSMSGLGCPSLADPRPNAPSTSA (ends and bridges not checked; cysteine pairing not given here) [CDNP-A4]
41.1
